The reported numbers originate from PubChem BioAssay.

assayProcedure: PSAC antagonists in infected red cells, primary screen, cell-based, P. falciparum Indochina, OD700, 2 h (AID 1155);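 further: lysis reports solute entry through the parasite surface anion channel PSAC; channel blockers reduce lysis of infected cells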
measurementParameters: P. falciparum Indochina infected erythrocytes, osmotic lysis OD700; higher = more signal, called active from +8 up or from −8 down
endpoint: z-score
Give a plain numeric answer without units written out.

Prompt: What does the data say about its z-score? Entry: O=C1OCC=C[C@H]2OC34C=CCN(Cn5nnc6ccccc65)C(=O)[C@H]3N(CCCO)C(=O)[C@@H]4[C@@H]12 (stereo partly specified)
Completion: -1.01

Prompt: For C=C(COC)/C(=C/C[C@H](OC(=O)c1ccncc1)c1ccccc1OCCO)c1cnc2ccccc2c1 , what is its reported z-score?
Completion: 1.86

Prompt: // z-score lookup, key: NC(=O)NCC#Cc1ccc2c(c1)[C@]1(C(=O)N2)[C@H](C(=O)NC[C@H](O)c2ccccc2)[C@H]2C(=O)O[C@H](c3ccccc3)[C@H](c3ccccc3)N2[C@@H]1c1ccc(OCCO)cc1
Completion: 1.72

Prompt: Which z-score reading was recorded for the compound COCCOC(=O)N1C(=O)[C@@]2(c3ccccc31)[C@H](C(=O)N1CCN(c3ncccn3)CC1)[C@H]1C(=O)O[C@H](c3ccccc3)[C@H](c3ccccc3)N1[C@@H]2c1ccc(O)cc1 ?
Completion: 0.672

Prompt: Endpoint output: z-score of [N-]=[N+]=Nc1ccccc1C[C@]1(C(=O)N2CCOCC2)N=C(c2ccc(OCCCO)cc2)O[C@H]1c1ccccc1 . Value?
Completion: 4.95

Prompt: Fill blank: measured z-score of the compound COc1ccc([Si](C)(C)[C@H]2[C@H](CCn3cc([C@H](O)c4ccccc4)nn3)O[C@@]3(C(=O)N(Cc4ccc(N5C(=O)c6cccc7cccc5c67)cc4)c4ccccc43)[C@@H]2C)cc1 is ____.
Completion: 0.485

###

assayProcedure: CREB reporter modulators under forskolin, primary screen, cell-based, PC12, CRE-LacZ reporter, forskolin-stimulated (AID 1146);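 further: PC12 cells with 6xCRE LacZ reporter stimulated by forskolin 10 µM; beta-galactosidase reporter signal reflecting CREB driven transcription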
measurementParameters: luminescence, 4.5 h, higher = more signal, called active from +8 up or from −8 down
endpoint: z-score
Write the number on its own, no unit after it.

Prompt: Which z-score is listed for COc1cc(CO)cc(I)c1O[C@H]1C=C(C(=O)NCCO)C[C@@H](NCc2ccc(F)cc2)[C@@H]1O ?
Completion: -1.05

Prompt: Name the reported z-score value associated with the compound CCOC(=O)C[C@H]1[C@H](OC(=O)c2cc3ccccc3oc2=O)[C@@H](NC(=O)Cc2ccc(OC)cc2)c2cc(OCCCO)ccc2N1C(=O)c1ccc2ccccc2n1
Completion: -0.906

Prompt: Record request: z-score value, item Cc1ccccc1C(O)C1C=CC2C(=O)N(C)C(=O)C2N1N(c1ccccc1)c1ccccc1 (stereo not drawn)
Completion: -0.0376

Prompt: Bench note: what z-score did CCCCC(=C=CC[C@@H](O)c1ccccc1OCCO)C[C@@H](O)COCc1ccccc1 show?
Completion: -0.749

Prompt: Quick one: z-score for CC(=O)NCCCC[C@@H]1NC(=O)[C@@H]2C[C@H](C(=O)NCCCC[N+](C)(C)C)[C@H](c3ccc(O)cc3)N2C1=O ?
Completion: -0.528

Prompt: Recorded z-score of COC(=O)[C@@]1(Cc2ccc(OC)cc2)[C@H]2c3cc(C(=O)N(C)C)n(Cc4ccc(Cl)c(C(F)(F)F)c4)c3C[C@H]2CN1C(=O)c1ccccc1 , please.
Completion: 2.18

Prompt: Give its z-score value. Item: COc1ccc(NC(=O)O[C@H]2[C@H](OC(=O)Nc3ccccc3)[C@H](OC(=O)Nc3ccccc3)[C@@H](OC)O[C@@H]2CO)cc1
Completion: -1.05

Prompt: # input compound: CCCCO[C@H]1C[C@H]2C(I)=C[C@@H]1C(=O)[C@]21CO1 ; wanted: its z-score
Completion: 0.672
